Assay: NCI Yeast Anticancer Drug Screen. Data for the cln2 rad14 strain (AID 165);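 further: 0% = growth equal to vehicle treated cultures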
Details: S. cerevisiae cln2 rad14 strain, at 5.0 µM (retest, dose inferred, filed as 0.5)
This is part of a sample that, as a whole, favours compounds with a hit. Of some 79,000 tested, about 15% had one in any assay. Calls of active or inactive are those of the source. No stated cut-off is given here; in the data, active means growth inhibition above about 70%; inactive means the rest.
Choose the fitting class; nothing outside active, inactive is accepted.

Recorded results for 5 compounds are shown here.
Task: Hi, do you know how "CC(C)(C)C1=CC(=CC=C2C=CN(CCCCCCCCCCCO)C=C2)C=C(C(C)(C)C)C1=O" came out in this test?
Output: active

Task: Assay result, entry "CCOC(=O)c1ccc(NC(=O)O/N=C(/Cl)C(C)C)cc1" — outcome?
Output: inactive

Task: Tell me the recorded outcome of this test for "O=[N+]([O-])c1ccc2c(c1)/C(=N/N=C1c3ccccc3Cc3ccccc31)c1cc([N+](=O)[O-])cc([N+](=O)[O-])c1-2" .
Output: inactive

Task: Tell me the assay call for "O=C(NNc1ccccc1)c1ccc(Cl)c(Cl)c1" please.
Output: inactive

Task: Recorded test outcome, item "COc1cc(/C=C2\CCC/C(=C\c3ccc(O)c(OC)c3)C2=O)ccc1O"
Output: inactive

Next:
Task: What is the recorded call for this compound in the test? Oc1ccc2c(c1)C(O)CCCC2 (stereo not given)
Output: inactive

Task: Assay outcome for Cc1cccc(C(C)(C)C)c1NC(=O)C(C#N)C1=C(Cl)C(=O)c2ccccc2C1=O (stereo not given) : what was it?
Output: inactive

Task: Recorded test outcome, item "CCCCCOC(=S)SC(=O)OCC"
Output: inactive

Task: Hi, sorry to bother you, what did the test record for "CCOC(=O)c1[nH]n(-c2ccccc2)c(=O)c1C=NC(=S)C(N)=S" ?
Output: inactive

Task: I'd appreciate the recorded outcome for "CNC(=O)OCc1c(COC(=O)NC)c(-c2ccc(Cl)cc2)n2c1CCC2" from this test.
Output: inactive

---

Test: NCI Yeast Anticancer Drug Screen. Data for the bub3 strain (AID 167)
Conditions: S. cerevisiae bub3 mutant strain, at 5.0 µM (retest, dose inferred, filed as 0.5), stronger effect = higher value
The panel holds about 79,000 compounds, 15% with a hit somewhere; the sample as a whole holds those more often.
Threshold check on growth inhibition: at or above 20% gives met, strictly below gives not met.

For orientation, consider the following solved cases.
Task: Check this compound for growth inhibition at or above 20%: "c1ccc2c(c1)sc1c3cnccc3ccc21"
Output: not met

Task: Reported growth inhibition at or above 20%? "Cc1cc(NCCCCCCCCNc2cc(C)nc3cc(N)ccc23)c2ccc(N)cc2n1"
Output: met

Task: For this compound, is measured growth inhibition 20% or higher? "CCCCN(CCCC)C(=O)/C=C/c1ccccc1"
Output: not met

Further cases:
Task: Quick check, growth inhibition >= 20%? COC(C(O)CO)C(O)C(O)C(=O)NNc1ccccc1 (stereo unspecified)
Output: met

Task: Exam item: decide whether the reported growth inhibition for "Cc1c(C(C)C)cc(OCCO)cc1C(C)C" is at least 20%.
Output: not met

Task: Does growth inhibition meet or surpass 20% for "Cn1c(-c2ccc(/C=N\N3CCN(/N=C/c4ccc(-c5c[n+]6ccccc6n5C)cc4)CC3)cc2)c[n+]2ccccc12" ?
Output: not met

---

Test: NCI Yeast Anticancer Drug Screen. Data for the rad14 strain (AID 159);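 further: 0% = growth of vehicle-treated control cultures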
Conditions: S. cerevisiae rad14 strain growth inhibition; at 3.7 µM; stronger effect = higher value
This is part of a sample that, as a whole, favours compounds with a hit. Of some 79,000 tested, about 15% had one in any assay.
Readings of growth inhibition for the listed molecules
The reply should contain only the number, in %.

Task: Please report the measured growth inhibition for "COC1=C(OC)C(=O)C(Sc2ccc3ccccc3c2)=CC1=O"
Output: -8

Others:
Task: Report measured growth inhibition; entry is "Cc1c2cc[n+](Cc3ccc(I)cc3)cc2c(C)c2c1[nH]c1ccccc12"
Output: 0

Task: Please supply the value of reported growth inhibition for the item "Cc1ccccc1N=C(NO)c1ccccc1"
Output: -4

Task: Could you please provide reported growth inhibition for "Cc1ccc(NCCNCCO)c2c(=O)c3cc(O)ccc3sc12" ? Thanks!
Output: -4

Task: Please supply the value of reported growth inhibition for the item "Nc1ccc(F)cc1S"
Output: -18

Task: For "CC(=O)Nc1ccc(/C=C/[N+](=O)[O-])cc1" , write its growth inhibition.
Output: 11

Task: Look up growth inhibition of "Cc1nc2ccccc2nc1NNc1ccccc1" and report it.
Output: -7

Task: Assign growth inhibition to the following record: C[Si](C)(C)/C=C/CCNC(C#N)c1ccccc1 (configuration not stated)
Output: 3

Task: Retrieve growth inhibition measured for "CC(C)(C)c1ccc(NS(=O)(=O)c2ccc(N)cc2)cc1" and print it.
Output: -1

Task: Name the recorded growth inhibition of the molecule listed here: "N#CC(=Nc1ccccc1F)Nc1ccccc1F"
Output: -4

Task: Specify reported growth inhibition for the molecule shown: COC(=O)C1=C(C(=O)OC)C(C(=O)OC)C(C(=O)OC)C(C(=O)OC)(C(=O)OC)C(C(=O)OC)=C1C(=O)OC (configuration not stated)
Output: -20

Task: Report growth inhibition for C=C1CCC(O)C/C1=C/C=C1\CCCC2(C)C1CCC2C(C)CCCC(C)C (configuration not stated)
Output: -27
